# measuredOn: Human immunodeficiency virus type 1 protease (Human immunodeficiency virus 1, UniProt Q72874, I47V/V32I/V82I)
# Sequence (Q72874 entry or part of it I47V/V32I/V82I): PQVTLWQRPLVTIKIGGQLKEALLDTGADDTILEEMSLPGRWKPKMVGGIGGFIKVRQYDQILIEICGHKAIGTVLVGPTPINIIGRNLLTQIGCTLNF
# testMethodNotes: Binding affinity to HIV1 protease V32I/I47V/V82I triple mutant at pH 4.0 and 28 degC by ITC method

{"columns": ["structureSmiles", "units", "Ki"],
 "data": [
  ["CC(C)CN(C[C@@H](O)[C@H](Cc1ccccc1)NC(=O)O[C@H]1CCOC1)S(=O)(=O)c1ccc(N)cc1", "µM", 0.01]
]}

====

# testMethodNotes: Binding affinity to wild type HIV1 protease at pH 5.0 and 20 degC by ITC method
# Set-up: species or system Human immunodeficiency virus 1
pKi: −log10 of the molar value.

{"columns": ["compound", "pKi"],
 "data": [
  ["CC(C)CN(C[C@@H](O)[C@H](Cc1ccccc1)NC(=O)O[C@H]1CCOC1)S(=O)(=O)c1ccc(N)cc1 [AMPRENAVIR]", 9.41]
]}
